# testDetails: qHTS of pediatric cancer cell lines to identify multiple opportunities for drug repurposing: Primary screen for SJ-GBM2 cells (AID 1347091)
# conditionContext: SJ-GBM2 viability, CellTiter-Glo luminescence, 48 h; series mostly up to 46 µM
Results filed as inconclusive are left out. Activity calls are given as the source filed them. Calls come from the whole dose curve; as a rule, active = well fitted cell-killing curve with a large enough effect; inconclusive = small, poorly fitted or top-dose-only effect; inactive = no such curve, though single readings can be large or run the other way.
Classes used: True (active), False (inactive)

[[record]]
molecule = "OCCCc1ccccc1"
grouplabel = "False"

[[record]]
molecule = "CCCc1ncc(C(=O)O)s1"
grouplabel = "False"

[[record]]
molecule = "Brc1ccccc1-c1ccccc1"
grouplabel = "False"

[[record]]
molecule = "CCC(=O)Oc1ccc2c(c1)CC[C@@H]1[C@@H]2CC[C@@]2(C)[C@H]1C[C@@H](OC(=O)CC)[C@@H]2OC(=O)CC"
grouplabel = "False"

[[record]]
molecule = "CCOC(=O)c1ccc(NC(=O)CN2CCCCC2)cc1"
grouplabel = "False"

[[record]]
molecule = "CC(C)(Oc1ccc(Cl)cc1)C(=O)OCCCOC(=O)C(C)(C)Oc1ccc(Cl)cc1"
grouplabel = "False"

[[record]]
molecule = "CO/N=C(\\C(=O)O)c1csc(NC(=O)CCl)n1"
grouplabel = "False"

[[record]]
molecule = "Nc1ncnc2c1ncn2Cc1c(F)cccc1Cl"
grouplabel = "False"

[[record]]
molecule = "NS(=O)(=O)c1cc2c(cc1Cl)CN(C1CCCCC1)C2=O"
grouplabel = "False"

[[record]]
molecule = "Cc1cc(OCCOCC[N+](C)(C)Cc2ccccc2)ccc1C(C)(C)CC(C)(C)C"
grouplabel = "True"

[[record]]
molecule = "Cn1cc(S(C)=O)c(=O)c2ccc(F)cc21 (stereo unspecified)"
grouplabel = "False"

[[record]]
molecule = "Clc1ccc2c(c1)Nc1ccccc1S2"
grouplabel = "False"

[[record]]
molecule = "COCCc1ccccn1"
grouplabel = "False"

[[record]]
molecule = "CC(C)OC(=O)c1cc2c(OCC(O)CNC(C)(C)C)cccc2[nH]1 (stereo unspecified)"
grouplabel = "False"

[[record]]
molecule = "CC(=O)N(CC(O)CO)c1c(I)c(C(=O)NCCO)c(I)c(C(=O)NCC(O)CO)c1I (stereo unspecified)"
grouplabel = "False"

[[record]]
molecule = "CN(C)[C@@H]1C(=O)C(C(N)=O)=C(O)[C@@]2(O)C(=O)C3=C(O)c4c(O)cccc4C[C@H]3C[C@@H]12"
grouplabel = "False"

[[record]]
molecule = "Nc1ccc([N+](=O)[O-])c(C(F)(F)F)c1"
grouplabel = "False"

[[record]]
molecule = "COC(=O)c1c(Cl)c(Cl)c(C(=O)OC)c(Cl)c1Cl"
grouplabel = "False"

[[record]]
molecule = "Nc1ccc(C(=O)OCC(O)CO)cc1 (stereo unspecified)"
grouplabel = "False"

[[record]]
molecule = "CCOC(=O)C(=O)c1csc(NC=O)n1"
grouplabel = "False"

[[record]]
molecule = "C[C@@H]1C[C@H]2[C@@H]3CCC4=CC(=O)C=C[C@]4(C)[C@@]3(F)[C@@H](O)C[C@]2(C)[C@@]1(O)C(=O)COC(=O)c1ccncc1"
grouplabel = "False"

[[record]]
molecule = "CCN1CCN(C(=O)N[C@@H](C(=O)N[C@@H]2C(=O)N3[C@@H]2SC(C)(C)[C@H]3C(=O)O)c2ccccc2)C(=O)C1=O"
grouplabel = "False"

[[record]]
molecule = "O=C1c2ccccc2CCc2ccccc21"
grouplabel = "False"

[[record]]
molecule = "CC1(C)O[C@@H]2C[C@H]3[C@@H]4C[C@H](F)C5=CC(=O)C=C[C@]5(C)[C@@]4(F)[C@@H](O)C[C@]3(C)[C@]2(C(=O)CO)O1"
grouplabel = "False"

[[record]]
molecule = "O=C(OCCN1CCOCC1)c1cccnc1Nc1cccc(C(F)(F)F)c1"
grouplabel = "False"

[[record]]
molecule = "CC1(C)O[C@@H]2C[C@H]3[C@@H]4CCC5=CC(=O)C=C[C@]5(C)[C@@]4(F)[C@@H](O)C[C@]3(C)[C@]2(C(=O)CO)O1"
grouplabel = "False"

[[record]]
molecule = "Cc1ccc(/C=N/n2c(-c3ccccc3)csc2=S)cc1"
grouplabel = "False"

[[record]]
molecule = "CCOC(=O)NNc1ccc(N(CC)CC(C)O)nn1 (stereo unspecified)"
grouplabel = "False"

[[record]]
molecule = "CCCCCN(CCCOC)C(=O)C(CCC(=O)O)NC(=O)c1ccc(Cl)c(Cl)c1 (stereo unspecified)"
grouplabel = "False"

[[record]]
molecule = "CC(C)(c1ccc(O)cc1)c1ccc(O)cc1"
grouplabel = "False"

[[record]]
molecule = "CCc1cc(S(=O)(=O)O)c2cc(C(C)C)cccc1-2"
grouplabel = "False"

[[record]]
molecule = "COc1cc(C(=O)OC(COCCC(C)C)CN2CCOCC2)cc(OC)c1OC (stereo unspecified)"
grouplabel = "False"

[[record]]
molecule = "CCO[C@H](Cc1ccc(OCCc2ccc(OS(C)(=O)=O)cc2)cc1)C(=O)O"
grouplabel = "False"

[[record]]
molecule = "COC(=O)c1cc(Cl)ccc1OC"
grouplabel = "False"

[[record]]
molecule = "O=C(O)c1ccc(OCCN2CCCCC2)cc1"
grouplabel = "False"

[[record]]
molecule = "COC(=O)c1cc(Cl)c(NC(C)=O)cc1OC"
grouplabel = "False"

[[record]]
molecule = "CC(COc1ccccc1)NN (stereo unspecified)"
grouplabel = "False"

[[record]]
molecule = "COC(=O)C1=C(C)NC(C)=C(C(=O)OCCc2ccc(N3CCN(C(c4ccccc4)c4ccccc4)CC3)cc2)C1c1cccc([N+](=O)[O-])c1 (stereo unspecified)"
grouplabel = "False"

[[record]]
molecule = "CC[C@@H]([C@H](C)O)n1ncn(-c2ccc(N3CCN(c4ccc(OC[C@@H]5CO[C@@](Cn6cncn6)(c6ccc(F)cc6F)C5)cc4)CC3)cc2)c1=O"
grouplabel = "True"

[[record]]
molecule = "CCN(CC)CC(=O)OCC(=O)[C@@]1(O)CC[C@H]2[C@@H]3CCC4=CC(=O)CC[C@]4(C)[C@H]3[C@@H](O)C[C@@]21C"
grouplabel = "False"

[[record]]
molecule = "O=C(CCCl)NCc1ccccc1"
grouplabel = "False"

